Tested on: 556581-035-R-J1-PDC complex spheroid viability
Assay: Anticancer human tumor 556581-035-R-J1-PDC patient-derived ovarian carcinoma cell line growth inhibition
Conditions: curve of first compound; second compound 10 µM
pIC50: −log10 of the molar value.
Categorized via pIC50: low class: < 6; middle class: ≥ 6 and < 8; high class: ≥ 8

Solved entries (count: 3):
COc1cc(C2c3cc4c(cc3C(OC3OC5COC(C)OC5C(O)C3O)C3COC(=O)C23)OCO4)cc(OC)c1O (stereo not drawn) + NC1CCC(NC2CC2c2ccccc2)CC1: middle class
Nc1ncn(C2CC(O)C(CO)S2)c(=O)n1 (stereo not drawn) + NC1CC1c1ccc(-c2cccc(O)c2)cc1: middle class
CC1COCCN1c1cc(C2(S(C)(=N)=O)CC2)nc(-c2ccnc3[nH]ccc23)n1 (stereo not drawn) + NC1CCC(NC2CC2c2ccccc2)CC1: low class

Hi, small favor: classify CC1(C)CCC(CN2CCN(c3ccc(C(=O)NS(=O)(=O)c4ccc(NCC5CCOCC5)c([N+](=O)[O-])c4)c(Oc4cnc5[nH]ccc5c4)c3)CC2)=C(c2ccc(Cl)cc2)C1 + NC1CCC(NC2CC2c2ccccc2)CC1 by its pIC50 when you get a moment. low class

Form: Item = NS(=O)(=O)OCC1CC(n2ccc3c(NC4CCc5ccccc54)ncnc32)CC1O (stereo not drawn) + NC1CCC(NC2CC2c2ccccc2)CC1 ; Class = ? middle class

State the band of CC[C@@]1(O)C(=O)OCc2c1cc1n(c2=O)Cc2cc3c(CN(C)C)c(O)ccc3nc2-1 + NC1CC1c1ccc(-c2cccc(O)c2)cc1 high class

Band of CC(C)CC(NC(=O)CNC(=O)c1cc(Cl)ccc1Cl)B1OC(=O)CC(CC(=O)O)(C(=O)O)O1 (stereo not drawn) + NC1CC1c1ccc(-c2cccc(O)c2)cc1 ? high class

Bin this entry: COc1cc(Nc2ncc3c(n2)-c2ccc(Cl)cc2C(c2c(F)cccc2OC)=NC3)ccc1C(=O)O + NC1CCC(NC2CC2c2ccccc2)CC1 middle class

Which pIC50 category applies to CCc1c2c(nc3ccc(O)cc13)-c1cc3c(c(=O)n1C2)COC(=O)[C@]3(O)CC + NC1CC1c1ccc(-c2cccc(O)c2)cc1 here? high class

Which bin, given its pIC50, does O=C(C=Cn1cnc(-c2cc(C(F)(F)F)cc(C(F)(F)F)c2)n1)NNc1cnccn1 + NC1CC1c1ccc(-c2cccc(O)c2)cc1 occupy? middle class

---

// reported viability, T/C per item
System: 556581-035-R-J1-PDC complex spheroid viability
Assay: Anticancer human tumor 556581-035-R-J1-PDC cell line growth inhibition;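 further: spheroids exposed to agents for seven days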;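 on viability, T/C: 100% = DMSO vehicle control wells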
Conditions: second compound 3.16 µM; first compound 0.03 µM; stronger effect = lower value
State the answer as a number, implicitly in %.

Example cases with answers are listed next.
NS(=O)(=O)OCC1CC(n2ccc3c(NC4CCc5ccccc54)ncnc32)CC1O (centres undefined) + NC1CC1c1ccc(-c2cccc(O)c2)cc1: 75.7
Nc1ccn(C2OC(CO)C(O)C2(F)F)c(=O)n1 (centres undefined) + NC1CC1c1ccc(-c2cccc(O)c2)cc1: 26.5
CCN(c1cc(-c2ccc(CN3CCOCC3)cc2)cc(C(=O)NCc2c(C)cc(C)[nH]c2=O)c1C)C1CCOCC1 + NC1CC1c1ccc(-c2cccc(O)c2)cc1: 102
Nc1ncn(C2CC(O)C(CO)S2)c(=O)n1 (centres undefined) + NC1CC1c1ccc(-c2cccc(O)c2)cc1: 52.6
Nc1ccccc1NC(=O)c1ccc(CNC(=O)OCc2cccnc2)cc1 + NC1CCC(NC2CC2c2ccccc2)CC1: 61.3

Value lookup for viability, T/C; key = Nc1ccccc1NC(=O)c1ccc(CNC(=O)OCc2cccnc2)cc1 + NC1CC1c1ccc(-c2cccc(O)c2)cc1 72.7

Which value of viability, T/C has been reported for Nc1ccn(C2OC(CO)C(O)C2(F)F)c(=O)n1 (centres undefined) + NC1CCC(NC2CC2c2ccccc2)CC1 in the records? 42.8

Given the entry O=C(C=Cc1cccc(S(=O)(=O)Nc2ccccc2)c1)NO + NC1CC1c1ccc(-c2cccc(O)c2)cc1 , report its measured viability, T/C. 74.1

Would you mind telling me what viability, T/C value was observed for NS(=O)(=O)OCC1CC(n2ccc3c(NC4CCc5ccccc54)ncnc32)CC1O (centres undefined) + NC1CCC(NC2CC2c2ccccc2)CC1 ? 106
